Test system: PC-3
RUN_DESCRIPTION: Cytotoxicity against human PC3 cells after 72 hrs by MTT assay
Type: functional
APPLIED_CONDITIONS: PC-3, 72 h
Label key: rule met means TGI under 40 µM; rule not met means TGI of 40 µM or more.

- COMPOUND: "CS/C(=N\\C(=O)c1ccno1)NC(=O)c1ccno1"
  DISCRETE_LABEL: "rule not met"
- COMPOUND: "CS/C(=N\\C(=O)c1csc([N+](=O)[O-])c1)NC(=O)c1csc([N+](=O)[O-])c1"
  DISCRETE_LABEL: "rule not met"
- COMPOUND: "C[Se]/C(=N\\C(=O)c1csc([N+](=O)[O-])c1)NC(=O)c1csc([N+](=O)[O-])c1"
  DISCRETE_LABEL: "rule met"
- COMPOUND: "COc1cc([C@@H]2c3cc4c(cc3[C@@H](O[C@@H]3O[C@@H]5CO[C@@H](C)O[C@H]5[C@H](O)[C@H]3O)[C@H]3COC(=O)[C@H]23)OCO4)cc(OC)c1O [ETOPOSIDE]"
  DISCRETE_LABEL: "rule met"
- COMPOUND: "CS/C(=N\\C(=O)c1ccc2c(c1)OCO2)NC(=O)c1ccc2c(c1)OCO2"
  DISCRETE_LABEL: "rule not met"

Confirm or reject: TGI of CS/C(=N\C(=O)c1sccc1Cl)NC(=O)c1sccc1Cl lies strictly below 40 µM
rule not met

Confirm or reject: TGI of C[Se]/C(=N\C(=O)c1cnc2ccccc2c1)NC(=O)c1cnc2ccccc2c1 lies strictly below 40 µM
rule not met

====

Tested on: HT-29
RUN_DESCRIPTION: Cytotoxicity against human HT-29 cells after 72 hrs by MTT assay
Type: functional
APPLIED_CONDITIONS: HT-29, 72 h, read-out: LC50 (the source's name)
MEASURED_ENDPOINT: CC50

Known results for molecules:
- CPD_SMILES: "CS/C(=N\\C(=O)c1ccco1)NC(=O)c1ccco1"
  MEASURED_ON: "HT-29"
  CC50: "> 100 µM"
- CPD_SMILES: "C[Se]/C(=N\\C(=O)c1cnc2ccccc2c1)NC(=O)c1cnc2ccccc2c1"
  MEASURED_ON: "HT-29"
  CC50: "> 100 µM"

Below are 3 molecules. Give each one its CC50.
1. C[Se]/C(=N\C(=O)c1ccco1)NC(=O)c1ccco1
2. CS/C(=N\C(=O)c1cccs1)NC(=O)c1cccs1
3. O=C(/N=C(/NC(=O)c1cnc2ccccc2c1)[Se]Cc1ccccc1)c1cnc2ccccc2c1

1: > 100 µM; 2: > 100 µM; 3: > 100 µM

====

System: HT-29
RUN_DESCRIPTION: Cytotoxicity against human HT-29 cells after 72 hrs by MTT assay
Type: functional
APPLIED_CONDITIONS: HT-29, 72 h
MEASURED_ENDPOINT: GI50 (µM)
One number for each entry, in µM.

- CPD_SMILES: "C[Se]/C(=N\\C(=O)c1c2ccccc2nc2ccccc12)NC(=O)c1c2ccccc2nc2ccccc12"
  GI50 / µM: 7.63
- CPD_SMILES: "O=C(/N=C(/NC(=O)c1sccc1Cl)[Se]Cc1ccccc1)c1sccc1Cl"
  GI50 / µM: 6.51
- CPD_SMILES: "CS/C(=N\\C(=O)c1c2ccccc2nc2ccccc12)NC(=O)c1c2ccccc2nc2ccccc12"
  GI50 / µM: 69.2
- CPD_SMILES: "CS/C(=N\\C(=O)c1cc(-c2ccccc2)nc2ccccc12)NC(=O)c1cc(-c2ccccc2)nc2ccccc12"
  GI50 / µM: 23.7
- CPD_SMILES: "CS/C(=N\\C(=O)c1csc([N+](=O)[O-])c1)NC(=O)c1csc([N+](=O)[O-])c1"
  GI50 / µM: 51.8
- CPD_SMILES: "C[Se]/C(=N\\C(=O)c1cc2ccccc2s1)NC(=O)c1cc2ccccc2s1"
  GI50 / µM: 5.62
- CPD_SMILES: "CS/C(=N\\C(=O)c1ccc2c(c1)OCO2)NC(=O)c1ccc2c(c1)OCO2"
  GI50 / µM: 46.4

Could you now look at the following molecule, please?
Which GI50 is reported for this molecule? O=C(/N=C(/NC(=O)c1cnc2ccccc2c1)[Se]Cc1ccccc1)c1cnc2ccccc2c1
26.1

====

So I've got a bunch of compounds here, and I need their CC50 values.
System: K562
RUN_DESCRIPTION: Cytotoxicity against human K562 cells after 72 hrs by MTT assay
Type: functional
APPLIED_CONDITIONS: K562, 72 h, read-out: LC50 (the source's name)

- CPD_SMILES: "C[Se]/C(=N\\C(=O)c1cnc2ccccc2c1)NC(=O)c1cnc2ccccc2c1"
  CC50: "74.8 µM"
- CPD_SMILES: "CC(=O)O[C@H]1C(=O)[C@@]2(C)[C@H]([C@H](OC(=O)c3ccccc3)[C@]3(O)C[C@H](OC(=O)[C@H](O)[C@@H](NC(=O)c4ccccc4)c4ccccc4)C(C)=C1C3(C)C)[C@]1(OC(C)=O)CO[C@@H]1C[C@@H]2O"
  CC50: "> 100 µM"
- CPD_SMILES: "CS/C(=N\\C(=O)c1ccco1)NC(=O)c1ccco1"
  CC50: "> 100 µM"
- CPD_SMILES: "O=C(/N=C(/NC(=O)c1ccco1)[Se]Cc1ccccc1)c1ccco1"
  CC50: "80.6 µM"
- CPD_SMILES: "O=C(/N=C(/NC(=O)c1cc(-c2ccccc2)nc2ccccc12)[Se]Cc1ccccc1)c1cc(-c2ccccc2)nc2ccccc12"
  CC50: "88.9 µM"
- CPD_SMILES: "O=C(/N=C(/NC(=O)c1ccc2c(c1)OCO2)[Se]Cc1ccccc1)c1ccc2c(c1)OCO2"
  CC50: "> 100 µM"

Below are 7 compounds. Give each one its CC50.
1. CC[C@@]1(O)C(=O)OCc2c1cc1n(c2=O)Cc2cc3ccccc3nc2-1
2. O=C(/N=C(/NC(=O)c1cnc2ccccc2c1)[Se]Cc1ccccc1)c1cnc2ccccc2c1
3. CS/C(=N\C(=O)c1cccs1)NC(=O)c1cccs1
4. C[Se]/C(=N\C(=O)c1csc([N+](=O)[O-])c1)NC(=O)c1csc([N+](=O)[O-])c1
5. C[Se]/C(=N\C(=O)c1ccc2c(c1)OCO2)NC(=O)c1ccc2c(c1)OCO2
6. CS/C(=N\C(=O)c1c2ccccc2nc2ccccc12)NC(=O)c1c2ccccc2nc2ccccc12
7. C[Se]/C(=N\C(=O)c1ccco1)NC(=O)c1ccco1

1: > 100 µM; 2: > 100 µM; 3: > 100 µM; 4: > 100 µM; 5: 85.2 µM; 6: > 100 µM; 7: > 100 µM

Below are 2 compounds. Give each one its CC50.
1. CS/C(=N\C(=O)c1sccc1Cl)NC(=O)c1sccc1Cl
2. O=C(/N=C(/NC(=O)c1ccno1)[Se]Cc1ccccc1)c1ccno1

1. > 100 µM
2. 94.7 µM

Below are 3 compounds. Give each one its CC50.
1. CS/C(=N\C(=O)c1ccno1)NC(=O)c1ccno1
2. COc1cccc2c1C(=O)c1c(O)c3c(c(O)c1C2=O)C[C@@](O)(C(=O)CO)C[C@@H]3O[C@H]1C[C@H](N)[C@H](O)[C@H](C)O1
3. O=C(/N=C(/NC(=O)c1sccc1Cl)[Se]Cc1ccccc1)c1sccc1Cl

1. > 100 µM
2. 19.9 µM
3. > 100 µM

====

So I've got a bunch of molecules here, and I need their CC50 values.
Test system: HT-29
RUN_DESCRIPTION: Cytotoxicity against human HT-29 cells after 72 hrs by MTT assay
Format: functional
APPLIED_CONDITIONS: HT-29, 72 h, read-out: LC50 (the source's name)

Known results for molecules:
- MOLECULE: "CS/C(=N\\C(=O)c1cc2ccccc2s1)NC(=O)c1cc2ccccc2s1"
  CC50: "88.2 µM"
- MOLECULE: "CN(Cc1cnc2nc(N)nc(N)c2n1)c1ccc(C(=O)N[C@@H](CCC(=O)O)C(=O)O)cc1 [METHOTREXATE]"
  CC50: "0.03 µM"
- MOLECULE: "O=C(/N=C(/NC(=O)c1cc(-c2ccccc2)nc2ccccc12)[Se]Cc1ccccc1)c1cc(-c2ccccc2)nc2ccccc12"
  CC50: "> 100 µM"

Which CC50 is reported for this molecule? CC[C@@]1(O)C(=O)OCc2c1cc1n(c2=O)Cc2cc3ccccc3nc2-1
31.6 µM

====

Test system: K562
RUN_DESCRIPTION: Cytotoxicity against human K562 cells after 72 hrs by MTT assay
Type: functional
APPLIED_CONDITIONS: K562, 72 h, read-out: LC50 (the source's name)
Label key: t means CC50 under 90 µM; f means CC50 of 90 µM or more.

The following compounds have reported results that may help.
- COMPOUND: "C[Se]/C(=N\\C(=O)c1cc(-c2ccccc2)nc2ccccc12)NC(=O)c1cc(-c2ccccc2)nc2ccccc12"
  DISCRETE_LABEL: "t"
- COMPOUND: "O=C(/N=C(/NC(=O)c1c2ccccc2nc2ccccc12)[Se]Cc1ccccc1)c1c2ccccc2nc2ccccc12"
  DISCRETE_LABEL: "t"
- COMPOUND: "CS/C(=N\\C(=O)c1cc(-c2ccccc2)nc2ccccc12)NC(=O)c1cc(-c2ccccc2)nc2ccccc12"
  DISCRETE_LABEL: "f"

Let us examine a further case.
Confirm or reject: CC50 of CS/C(=N\C(=O)c1cnc2ccccc2c1)NC(=O)c1cnc2ccccc2c1 lies strictly below 90 µM
f
